Below: a set of entries, each annotated with reported MI (mutagenicity index).
Tested on: Vibrio harveyi BB7X
Conditions: 40 ng/mL, mutagenic if MI above 2.0
Experimental: From them, 0.2 mM working solutions were prepared by dilution with water. […] Working solutions were prepared by 1:100 dilution of stock solution in water, and final compound concentration assayed was 40 ng/mL. […]
property.name: MI (mutagenicity index)

> print(dat)
                                   compound  number
1  COc1nc2c(c(=O)n(C)c(=O)n2C)n1CC(=O)O [Compound 1]     1.4
2  COc1nc2c(c(=O)n(C)c(=O)n2C)n1CCCC(=O)N1CCN(c2ccccc2)CC1 [Compound 4]     1.2
3  COC(=O)Cn1c(OC)nc2c1c(=O)n(C)c(=O)n2C [Compound 2]     1.2
4  COc1nc2c(c(=O)n(C)c(=O)n2C)n1CCCC(=O)NCc1ccccc1 [Compound 3]     1.6

---

Test system: Vibrio harveyi BB7XM
Test: Vibrio harveyi mutagenicity assay, BB7XM
Assay type: cell-based
Details: 40 ng/mL, mutagenic if MI above 2.0
Protocol: From them, 0.2 mM working solutions were prepared by dilution with water. […] Working solutions were prepared by 1:100 dilution of stock solution in water, and final compound concentration assayed was 40 ng/mL. […]
property.name: MI (mutagenicity index)

> print(dat)
                                   molecule         system.tested  result
1  COc1nc2c(c(=O)n(C)c(=O)n2C)n1CCCC(=O)N1CCN(c2ccccc2)CC1 [Compound 4]  Vibrio harveyi BB7XM     1.2
2  COc1nc2c(c(=O)n(C)c(=O)n2C)n1CC(=O)O [Compound 1]  Vibrio harveyi BB7XM     1.1
3  COc1nc2c(c(=O)n(C)c(=O)n2C)n1CCCC(=O)NCc1ccccc1 [Compound 3]  Vibrio harveyi BB7XM     1.1
4  COC(=O)Cn1c(OC)nc2c1c(=O)n(C)c(=O)n2C [Compound 2]  Vibrio harveyi BB7XM     1.6

---

assay: Microsomal stability assay; assay type: in vitro ADME, rat; details: pH 7.4; rat liver microsomes, 20 μM, 0.4 mg/mL protein; read-out: in vitro half-time (t1/2)
property.name: half-life at 20 μM (min)

> print(dat)
                                   compound  unit.name  number
1  COc1nc2c(c(=O)n(C)c(=O)n2C)n1CCCC(=O)NCc1ccccc1 [Compound 3]        min    17.7

---

test system: Cunninghamella blakesleeana 1908 DMS; assay: Cunninghamella biotransformation assay, C. blakesleeana; format: in vitro ADME; conditions: 0.5 mg/mL, 7-day incubation, LC-MS/MS
property.name: % of compound/metabolite in C. blakesleeana (%)

> print(dat)
                         chemical.structure                         system.tested  unit.name  number
1  COc1nc2c(c(=O)n(C)c(=O)n2C)n1CCCC(=O)N1CCN(c2ccc(O)cc2)CC1  Cunninghamella blakesleeana 1908 DMS          %    66.6
2  COc1nc2c(c(=O)n(C)c(=O)n2C)n1CCCC(=O)NCc1ccccc1  Cunninghamella blakesleeana 1908 DMS          %    95.4
3  COc1nc2c(c(=O)n(C)c(=O)n2C)n1CCCC(=O)N1CCN(c2ccccc2)CC1  Cunninghamella blakesleeana 1908 DMS          %    33.3

---

assay: Microsomal stability assay; type: in vitro ADME, rat; conditions: pH 7.4; rat liver microsomes, 20 μM, 0.4 mg/mL protein; read-out: intrinsic clearance (Clint)
property.name: microsomal CLint at 20 μM (µL/min/mg)

> print(dat)
                         chemical.structure              property.name  number
1  COc1nc2c(c(=O)n(C)c(=O)n2C)n1CCCC(=O)NCc1ccccc1  microsomal CLint at 20 μM    97.9
